system: Escherichia coli; experiment: In vitro antibacterial activity against Escherichia coli 1850 WT.; format: functional
assay-readout: MIC (µg/mL)
The reply should contain only the number, in µg/mL.

Some entries whose results are on file:
compound	MIC / µg/mL
CO[C@H]1CCC[C@H]2C1=C(C(=O)[O-])N1C(=O)[C@H]([C@@H](C)O)[C@@H]21.[Na+] [SANFETRINEM SODIUM]	0.5
C[C@@H](O)[C@H]1C(=O)N2C(C(=O)[O-])=C3[C@H](CCC[C@@H]3N(C)C(N)=O)[C@H]12.[Na+]	0.25

In: Give MIC (Escherichia coli) of the following compound: C[C@@H](O)[C@H]1C(=O)N2C(C(=O)[O-])=C3[C@H](CCC[C@@H]3N(C)C(=O)NC(C)(C)C)[C@H]12.[Na+]
Out: 4

In: Give MIC (Escherichia coli) of the following compound: C[C@@H](O)[C@H]1C(=O)N2C(C(=O)O)=C(SCCNC=N)C[C@H]12 [IMIPENEM ANHYDROUS]
Out: 0.5

In: Give MIC (Escherichia coli) of the following compound: CCNC(=O)N(C)[C@H]1CCC[C@H]2C1=C(C(=O)[O-])N1C(=O)[C@H]([C@@H](C)O)[C@@H]21.[Na+]
Out: 2

In: Give MIC (Escherichia coli) of the following compound: C[C@@H](O)[C@H]1C(=O)N2C(C(=O)[O-])=C3[C@H](CCC[C@@H]3N(C)C(=O)NCCO)[C@H]12.[Na+]
Out: 0.5

====

test system: Pseudomonas aeruginosa; assay: In vitro antibacterial activity against Pseudomonas aeruginosa P. aeruginosa 1911.; assay type: functional
List of MIC values.
The reply should contain only the number, in µg/mL.

In: Fill in: MIC of C[C@@H](O)[C@H]1C(=O)N2C(C(=O)O)=C(SCCNC=N)C[C@H]12 [IMIPENEM ANHYDROUS] is ___
Out: 4

====

List of MIC values.
system: Streptococcus pneumoniae; assay: In vitro antibacterial activity against Streptococcus pneumoniae 3512.; format: functional

compound	MIC
C[C@@H](O)[C@H]1C(=O)N2C(C(=O)[O-])=C3[C@H](CCC[C@@H]3N(C)C(N)=O)[C@H]12.[Na+]	< 0.12 µg/mL
C[C@@H](O)[C@H]1C(=O)N2C(C(=O)O)=C(SCCNC=N)C[C@H]12 [IMIPENEM ANHYDROUS]	< 0.01 µg/mL
CO[C@H]1CCC[C@H]2C1=C(C(=O)[O-])N1C(=O)[C@H]([C@@H](C)O)[C@@H]21.[Na+] [SANFETRINEM SODIUM]	< 0.01 µg/mL
C[C@@H](O)[C@H]1C(=O)N2C(C(=O)[O-])=C3[C@H](CCC[C@@H]3N(C)C(=O)NC(C)(C)C)[C@H]12.[Na+]	< 0.12 µg/mL
CCNC(=O)N(C)[C@H]1CCC[C@H]2C1=C(C(=O)[O-])N1C(=O)[C@H]([C@@H](C)O)[C@@H]21.[Na+]	< 0.12 µg/mL

Turning to the following compound.
In: Fill in: MIC of C[C@@H](O)[C@H]1C(=O)N2C(C(=O)[O-])=C3[C@H](CCC[C@@H]3N(C)C(=O)NCCO)[C@H]12.[Na+] is ___
Out: < 0.12 µg/mL

Data origin, for the record: ChEMBL document CHEMBL1128935
